Cited source for all entries: a melting point compilation (Tetko et al.; mined from patent text by program, amines drawn as free bases though some values may be those of a salt)

# melting point values compiled below

Reference set, count: 5
CCCOc1ccc2c(c1)[C@H](c1ccc(OC)cc1-c1ccccc1)[C@@H](C(=O)O)[C@@H]2c1ccc2c(c1)OCO2 (racemic) :: 199 to 200 °C
O=c1cc(NCCN2CCN(c3ncccn3)CC2)cn[nH]1 :: 199 to 201 °C
COc1cccc(CCN2C(=O)c3ccccc3C2(O)c2ccc(C(F)(F)F)cc2)c1 (stereo not given) :: 167 °C
CC(=O)n1nc(C)c2ccc(F)cc21 :: 89 to 91 °C
CCCC(c1cc(C(=O)Nc2ccccc2)ccc1OCc1ccc(Br)cc1)n1ccnc1 (stereo not given) :: 159 to 166 °C

Req: Given the molecule `CC(C)(C)[Si](C)(C)O[C@H]1CCC[C@@]2(C)[C@H]1CC[C@@H]2[C@]1(C)CC(=O)CO1` , what is its reported melting point?
Resp: 52 °C

Req: Would you mind doing `Cc1cc(CO)ccn1` as well?
Resp: 58 to 59 °C

Req: Would you mind doing `O=C(O)COc1c(-c2cccc(C(F)(F)F)c2)cc(C(=O)NCCCCCCc2ccccc2)cc1-c1cccc(C(F)(F)F)c1` as well?
Resp: 166 to 169 °C

Req: Would you mind doing `CCOc1ccc(OC)c([N+](=O)[O-])c1` as well?
Resp: 33 to 36 °C
